Target: Anti-CD28 Fab (SEQ ID NOs: 202, 203)
Sequence (VH, as listed by the source, chain 1 of 2): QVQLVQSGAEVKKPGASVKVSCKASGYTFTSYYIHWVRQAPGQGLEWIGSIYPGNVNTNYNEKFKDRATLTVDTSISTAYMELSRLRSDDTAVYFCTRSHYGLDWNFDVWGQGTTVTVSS
Sequence (VL, as listed by the source, chain 2 of 2): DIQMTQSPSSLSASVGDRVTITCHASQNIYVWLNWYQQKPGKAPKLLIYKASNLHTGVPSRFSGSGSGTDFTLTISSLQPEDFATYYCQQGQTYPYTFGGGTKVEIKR
Experiment: phage binding ELISA on captured Fab;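 further: clonal phage supernatants added briefly to wells pre-incubated with CD28 antigen or with blocking buffer only, then washed, bound phage read by ELISA using HRP-coupled anti-M13 antibody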
Would you please tag the item satisfied when its Anti-CD28 Fab (SEQ ID NOs: 202, 203) signal is 0.8 or above, and not satisfied when it is below?

# example entries with known answers
Binder	Class Name
YCDGHAPEFIRKCL [Phage-754]	satisfied
YCDGHAAWYLQKCL [Phage-850]	not satisfied

Data request: Quick check, Anti-CD28 Fab (SEQ ID NOs: 202, 203) signal >= 0.8? YCVGHSPEYIWKCL [Phage-796]
Data returned: satisfied

Data request: Quick check, Anti-CD28 Fab (SEQ ID NOs: 202, 203) signal >= 0.8? YCEGHLDEYLQKCM [Phage-867]
Data returned: not satisfied

Data request: Quick check, Anti-CD28 Fab (SEQ ID NOs: 202, 203) signal >= 0.8? YCEGHLSEYIGKCL [Phage-811]
Data returned: satisfied

Data request: Quick check, Anti-CD28 Fab (SEQ ID NOs: 202, 203) signal >= 0.8? YCDGHKWEYLQKCL [Phage-816]
Data returned: satisfied

Data request: Quick check, Anti-CD28 Fab (SEQ ID NOs: 202, 203) signal >= 0.8? YCEGHAHEYMEKCV [Phage-790]
Data returned: satisfied

Data request: Quick check, Anti-CD28 Fab (SEQ ID NOs: 202, 203) signal >= 0.8? YCDGHSTLYMQKCL [Phage-806]
Data returned: satisfied
